selectivity ratio values for the molecules below.
- experiment: in vivo
- test.parameters: mouse, in vivo, Degree of protection afforded by pretreatment with atropine, ratio of LD50 after pretreatment with atropine sulphate 5 mg/kg to LD50 of drug alone

molecule | selectivity ratio
CCCNC(=O)Oc1cccc(C(C)N(C)C)c1 (centres unmarked) | 4.1
CC(C)NC(=O)Oc1cccc(C(C)N(C)C)c1 (centres unmarked) | 4.5
CCNC(=O)Oc1cccc(C(C)N(C)C)c1 (centres unmarked) | 2.6
CCCN(C)C(=O)Oc1cccc(C(C)N(C)C)c1 (centres unmarked) | 4.9
CC(c1cccc(OC(=O)NC2CCCCC2)c1)N(C)C (centres unmarked) | 3.8
CC(c1cccc(OC(=O)N(C)C)c1)N(C)C (centres unmarked) | 5
C=CCNC(=O)Oc1cccc(C(C)N(C)C)c1 (centres unmarked) | 8
CCCCNC(=O)Oc1cccc(C(C)N(C)C)c1 (centres unmarked) | 5.8

----------
- experiment: in vivo
- test.parameters: mouse, in vivo, decrease of acute toxicity (lethality) by the antidote atropine, mice, atropine
observed.property: selectivity ratio

compound | experimental.result
C=CCNC(=O)Oc1cccc(C(C)N(C)C)c1 (stereo not shown) | > 8

----------
Relative potency to physostigmine after subcut. (s.c.) administration values for the compounds below.
- System: brain acetylcholinesterase
- test.parameters: mouse brain, s.c., physostigmine = 100
observed.property: Relative potency to physostigmine after subcut. (s.c.) administration

compound | experimental.result
CC(c1cccc(OC(=O)NC2CCCCC2)c1)N(C)C (stereo not shown) | 13
CCCCNC(=O)Oc1cccc(C(C)N(C)C)c1 (stereo not shown) | 36
CCNC(=O)Oc1cccc(C(C)N(C)C)c1 (stereo not shown) | 11
CNC(=O)Oc1cccc(C(C)N(C)C)c1 (stereo not shown) [Miotine, reference compound] | 100

----------
- target.or.system: acetylcholinesterase (Mus musculus, UniProt P21836)
- Construct: A solubilized preparation of acetylcholinesterase was prepared from mouse whole brain (minus cerebellum)
- Sequence (P21836 32-614): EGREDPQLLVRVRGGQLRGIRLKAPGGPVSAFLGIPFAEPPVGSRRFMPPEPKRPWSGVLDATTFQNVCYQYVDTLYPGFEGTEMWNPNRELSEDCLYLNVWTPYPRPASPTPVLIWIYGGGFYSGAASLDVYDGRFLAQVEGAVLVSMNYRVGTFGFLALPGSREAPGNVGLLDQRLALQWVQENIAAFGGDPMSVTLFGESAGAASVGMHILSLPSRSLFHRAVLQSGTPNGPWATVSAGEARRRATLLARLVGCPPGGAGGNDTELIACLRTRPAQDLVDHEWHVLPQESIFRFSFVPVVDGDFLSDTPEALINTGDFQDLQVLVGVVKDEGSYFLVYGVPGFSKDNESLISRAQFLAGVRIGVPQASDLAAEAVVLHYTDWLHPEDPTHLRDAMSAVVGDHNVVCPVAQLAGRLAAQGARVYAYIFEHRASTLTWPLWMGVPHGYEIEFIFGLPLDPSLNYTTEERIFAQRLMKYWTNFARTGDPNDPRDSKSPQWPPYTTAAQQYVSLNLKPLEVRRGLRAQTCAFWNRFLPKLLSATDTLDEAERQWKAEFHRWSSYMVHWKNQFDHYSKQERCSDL
- experiment: biochemical

compound | IC50
CNC(=O)Oc1cccc(C(C)N(C)C)c1 (stereo not drawn) [Miotine, reference compound] | 13 nM
CCCNC(=O)Oc1cccc(C(C)N(C)C)c1 (stereo not drawn) | 110 nM
CCN(CC)C(=O)Oc1cccc(C(C)N(C)C)c1 (stereo not drawn) | 35000 nM
CC(C)NC(=O)Oc1cccc(C(C)N(C)C)c1 (stereo not drawn) | 12000 nM
CNC(=O)Oc1ccc2c(c1)[C@]1(C)CCN(C)[C@@H]1N2C [Physostigmine, reference compound] | 11 nM
CCNC(=O)Oc1cccc(C(C)N(C)C)c1 (stereo not drawn) | 400 nM
